Target: T1, human N6amt1–Trm112 complex (human, UniProt Q9Y5N5 1-214; Q9UI30 1-125)
T1 construct: human N6amt1 (HemK2), full length, 214 amino acids; human Trm112, full length; SAM co-purifies with the complex; before the ITC titration the complex was incubated with SAH at a molar ratio of 1:2; also called the protein complex; source: E. coli BL21(DE3), co-expressed from pET-Duet, purified (Ni-NTA, gel filtration)
T1 sequence (looked up) 1: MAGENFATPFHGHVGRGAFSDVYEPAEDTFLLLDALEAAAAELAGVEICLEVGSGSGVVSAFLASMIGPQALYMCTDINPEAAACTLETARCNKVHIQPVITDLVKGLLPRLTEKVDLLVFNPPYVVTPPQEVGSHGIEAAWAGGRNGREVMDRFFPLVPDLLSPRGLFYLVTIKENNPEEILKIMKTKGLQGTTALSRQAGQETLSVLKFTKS
T1 sequence (looked up) 2: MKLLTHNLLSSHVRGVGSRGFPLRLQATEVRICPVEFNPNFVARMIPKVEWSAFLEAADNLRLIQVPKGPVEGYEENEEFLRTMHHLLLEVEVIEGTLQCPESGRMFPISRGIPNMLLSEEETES
Assay: ITC; 2 mM peptide injected into 0.1 mM N6amt1–Trm112 in the cell, 20 °C; complex incubated beforehand with SAH at a molar ratio of 1:2; single binding site model
Details: both partners purified
reportedMetric: Kd (µM)
The figure you give is taken to be in µM; do not add the unit.

Which Kd reading was recorded for the binder KKHGRGGQSALRFAR (human eRF1, 15-residue peptide centered at Gln185; also called 15-residue GGQ peptide of eRF1) [Gln185-centered 15-residue peptide of human eRF1 (GGQ peptide)] ?
490

// data source = paper PMC6796863
